measurementTarget: human OX2R (Homo sapiens, UniProt O43614)
Sequence (O43614 1-444): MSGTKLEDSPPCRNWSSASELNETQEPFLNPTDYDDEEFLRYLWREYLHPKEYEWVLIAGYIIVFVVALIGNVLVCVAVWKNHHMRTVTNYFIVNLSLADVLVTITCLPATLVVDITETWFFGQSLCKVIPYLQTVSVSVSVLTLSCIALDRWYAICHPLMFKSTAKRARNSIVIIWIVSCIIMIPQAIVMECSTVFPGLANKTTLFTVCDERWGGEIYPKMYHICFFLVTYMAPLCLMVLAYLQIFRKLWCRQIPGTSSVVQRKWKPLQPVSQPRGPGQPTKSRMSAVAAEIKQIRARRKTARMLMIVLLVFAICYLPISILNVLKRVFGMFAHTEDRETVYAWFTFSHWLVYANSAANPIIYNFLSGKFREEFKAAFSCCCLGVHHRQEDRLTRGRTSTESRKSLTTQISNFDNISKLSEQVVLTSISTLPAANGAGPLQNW
procedureSummary: IPOne (IP-1 accumulation) assay in CHO cells expressing human OX2R
testConditions: CHO cells expressing human OX2R; IP-One assay, 2 h incubation; four parameter logistic fit; read-out: OX2R Potency, EC50
pEC50: −log10 of the molar value.
metricName: pEC50

1: CCN(C(=O)N[C@@H](CCC(F)(F)F)C(F)(F)F)[C@H](C)c1cccc(-c2ccc3nccn3c2)c1 [Example 1-1]
2: CCN(C(=O)N[C@@H](CCC(F)(F)F)C(F)(F)F)[C@H](C)c1cc(-c2cn3ccnc3c(OC)n2)ccn1 [Example 14-1]
1 or 2 : whose pEC50 is greater? Label of pick, please.
2
(2: 8.82, 1: 8.15)

1: COc1nc(-c2cccc(C(C)N(CC(F)F)C(=O)N[C@@H](CCC(F)(F)F)C(F)(F)F)c2)cn2ccnc12 (some centres unmarked) [Example 2-61]
2: CCN(C(=O)N[C@@H]1C[C@@]1(C)C(F)(F)F)[C@@H](c1cc(-c2cn3ccnc3c(OC)n2)c(OC)cn1)C(F)(F)F [Example 2-27]
3: CCN(C(=O)NC1CCC1C(F)(F)F)[C@@H](c1cc(-c2cn3ccnc3c(OC)n2)c(OC)cn1)C(F)(F)F (some centres unmarked) [Example 2-9]
Rank ascending by pEC50. Would you mind listing the labels in the order asked for?
3, 2, 1
(3: 7.69, 2: 8.03, 1: 8.24)

I: CCN(C(=O)N[C@@H](CCC(F)F)C(F)F)[C@@H](c1cc(-c2cn3cc(C)nc3c(OC)n2)c(OC)cn1)C(F)(F)F [Example 4-2]
II: CCN(C(=O)NC(C)(C)C#N)[C@H](C)c1cccc(-c2cn3ccnc3c(OC)n2)c1 [Example 2-25]
III: CCN(C(=O)N[C@@H](C)C(F)(F)F)C(c1cnc(OC)c(-c2cn3ccnc3c(OC)n2)c1)C(F)(F)F (some centres unmarked) [Example 2-62]
Please order the records by their reported pEC50, lowest number first. Please respond by ranking the labels in the order requested.
II, III, I
(II: 6.44, III: 7.88, I: 8.23)

I: C#CCCCC(NC(=O)N(CC)[C@H](C)c1cccc(-c2cn3ccnc3c(OC)n2)c1)C(F)(F)F (some centres unmarked) [Example 3-7]
II: CCN(C(=O)N[C@@H](CCC(F)(F)F)C(F)(F)F)[C@@H](c1cc(-c2cn3ccnc3c(OC)n2)c(C)cn1)C(F)(F)F [Example 10-21]
Sort I and II by pEC50 descending and give the first. Write the label of whichever entry you select.
II
(II: 8.80, I: 8.36)

a: CCN(C(=O)NC1CC(C(F)(F)F)C1)[C@@H](c1cc(-c2cn3ccnc3c(OC)n2)c(OC)cn1)C(F)(F)F (some centres unmarked) [Example 2-38]
b: CCN(C(=O)N[C@@H](CC1CC1)C(F)(F)F)[C@@H](c1cc(-c2cn3cc(C)nc3c(OC)n2)c(OC)cn1)C(F)(F)F [Example 3-5]
// pick min by pEC50: a , b Pick one; state its label.
b
(b: 7.39, a: 8.38)

// provenance: patent US12692262B2
